Source listed as the supplement of paper PMC8617591.

Measured total FIC50 values are reported for all entries that follow.
Test system: Mycobacterium tuberculosis Erdman (autoluminescent)
Assay: total FIC50 (Loewe) at 50% inhibition, three-drug combination (log2); higher = more antagonistic
Settings: in vitro model: standard 7H9 glycerol; time point: constant = terminal
ASSAY ENDPOINT: total FIC50

1. COc1nc2ccc(Br)cc2cc1[C@@H](c1ccccc1)[C@@](O)(CCN(C)C)c1cccc2ccccc12 [bedaquiline] + CC(=O)NC[C@H]1CN(c2ccc(N3CCOCC3)c(F)c2)C(=O)O1 [linezolid] + CO[C@H]1/C=C/O[C@@]2(C)Oc3c(C)c(O)c4c(O)c(c(/C=N/N5CCN(C)CC5)c(O)c4c3C2=O)NC(=O)/C(C)=C\C=C\[C@H](C)[C@H](O)[C@@H](C)[C@@H](O)[C@@H](C)[C@H](OC(C)=O)[C@@H]1C [rifampicin]
0.312
2. CC(=O)NC[C@H]1CN(c2ccc(N3CCOCC3)c(F)c2)C(=O)O1 [linezolid] + COc1c(N2C[C@@H]3CCCN[C@@H]3C2)c(F)cc2c(=O)c(C(=O)O)cn(C3CC3)c12 [moxifloxacin] + CO[C@H]1/C=C/O[C@@]2(C)Oc3c(C)c(O)c4c(O)c(c(/C=N/N5CCN(C6CCCC6)CC5)c(O)c4c3C2=O)NC(=O)/C(C)=C\C=C\[C@H](C)[C@H](O)[C@@H](C)[C@@H](O)[C@@H](C)[C@H](OC(C)=O)[C@@H]1C [rifapentine]
0.709

----------
System: Mycobacterium tuberculosis Erdman (autoluminescent)
Assay: Einf, fitted maximum growth inhibition of three-drug combination (fraction); higher = stronger maximal inhibition
Conditions: in vitro model: acidic pH 5.7; time point: terminal (~4-5 doublings, model-specific)
ASSAY ENDPOINT: Einf

1. COc1nc2ccc(Br)cc2cc1[C@@H](c1ccccc1)[C@@](O)(CCN(C)C)c1cccc2ccccc12 [bedaquiline] + CC(C)/N=c1\cc2n(-c3ccc(Cl)cc3)c3ccccc3nc-2cc1Nc1ccc(Cl)cc1 [clofazimine] + CC(=O)NC[C@H]1CN(c2ccc(N3CCOCC3)c(F)c2)C(=O)O1 [linezolid]
0.97
2. CC[C@@H](CO)NCCN[C@@H](CC)CO [ethambutol] + NNC(=O)c1ccncc1 [isoniazid] + O=[N+]([O-])c1cn2c(n1)OC[C@@H](OCc1ccc(OC(F)(F)F)cc1)C2 [pretomanid]
0.968

----------
Reported GRinf by item:
System: Mycobacterium tuberculosis Erdman (autoluminescent)
Assay: GRinf, maximum normalised growth rate inhibition (three-drug combination) (unitless (-1 to 1)); higher = less effect (negative = killing)
Conditions: in vitro model: cholesterol-high 0.2 mM; time point: terminal (~4-5 doublings, model-specific)
ASSAY ENDPOINT: GRinf

1) CC(=O)NC[C@H]1CN(c2ccc(N3CCOCC3)c(F)c2)C(=O)O1 [linezolid] + O=[N+]([O-])c1cn2c(n1)OC[C@@H](OCc1ccc(OC(F)(F)F)cc1)C2 [pretomanid] + CO[C@H]1/C=C/O[C@@]2(C)Oc3c(C)c(O)c4c(O)c(c(/C=N/N5CCN(C6CCCC6)CC5)c(O)c4c3C2=O)NC(=O)/C(C)=C\C=C\[C@H](C)[C@H](O)[C@@H](C)[C@@H](O)[C@@H](C)[C@H](OC(C)=O)[C@@H]1C [rifapentine]
-0.71
2) CC(C)/N=c1\cc2n(-c3ccc(Cl)cc3)c3ccccc3nc-2cc1Nc1ccc(Cl)cc1 [clofazimine] + COc1c(N2C[C@@H]3CCCN[C@@H]3C2)c(F)cc2c(=O)c(C(=O)O)cn(C3CC3)c12 [moxifloxacin] + NC(=O)c1cnccn1 [pyrazinamide]
-0.761

----------
Test system: Mycobacterium tuberculosis Erdman (autoluminescent)
Assay: AUC25, normalised area under dose response up to IC25 (three-drug combination) (fraction (0-1)); higher = more potent at low dose
Conditions: in vitro model: cholesterol-high 0.2 mM; time point: constant (~7 days, model-specific)
Attribute: AUC25
ASSAY ENDPOINT: AUC25

1) CC[C@@H](CO)NCCN[C@@H](CC)CO [ethambutol] + NNC(=O)c1ccncc1 [isoniazid] + O=[N+]([O-])c1cn2c(n1)OC[C@@H](OCc1ccc(OC(F)(F)F)cc1)C2 [pretomanid]
0.0675
2) NNC(=O)c1ccncc1 [isoniazid] + CC(=O)NC[C@H]1CN(c2ccc(N3CCOCC3)c(F)c2)C(=O)O1 [linezolid] + O=[N+]([O-])c1cn2c(n1)OC[C@@H](OCc1ccc(OC(F)(F)F)cc1)C2 [pretomanid]
0.107
3) NNC(=O)c1ccncc1 [isoniazid] + NC(=O)c1cnccn1 [pyrazinamide] + CO[C@H]1/C=C/O[C@@]2(C)Oc3c(C)c(O)c4c(O)c(c(/C=N/N5CCN(C)CC5)c(O)c4c3C2=O)NC(=O)/C(C)=C\C=C\[C@H](C)[C@H](O)[C@@H](C)[C@@H](O)[C@@H](C)[C@H](OC(C)=O)[C@@H]1C [rifampicin]
0.0657
4) CC(C)/N=c1\cc2n(-c3ccc(Cl)cc3)c3ccccc3nc-2cc1Nc1ccc(Cl)cc1 [clofazimine] + COc1c(N2C[C@@H]3CCCN[C@@H]3C2)c(F)cc2c(=O)c(C(=O)O)cn(C3CC3)c12 [moxifloxacin] + CO[C@H]1/C=C/O[C@@]2(C)Oc3c(C)c(O)c4c(O)c(c(/C=N/N5CCN(C)CC5)c(O)c4c3C2=O)NC(=O)/C(C)=C\C=C\[C@H](C)[C@H](O)[C@@H](C)[C@@H](O)[C@@H](C)[C@H](OC(C)=O)[C@@H]1C [rifampicin]
0.119
5) COc1nc2ccc(Br)cc2cc1[C@@H](c1ccccc1)[C@@](O)(CCN(C)C)c1cccc2ccccc12 [bedaquiline] + O=[N+]([O-])c1cn2c(n1)OC[C@@H](OCc1ccc(OC(F)(F)F)cc1)C2 [pretomanid] + CO[C@H]1/C=C/O[C@@]2(C)Oc3c(C)c(O)c4c(O)c(c(/C=N/N5CCN(C)CC5)c(O)c4c3C2=O)NC(=O)/C(C)=C\C=C\[C@H](C)[C@H](O)[C@@H](C)[C@@H](O)[C@@H](C)[C@H](OC(C)=O)[C@@H]1C [rifampicin]
0.0584
6) CC(C)/N=c1\cc2n(-c3ccc(Cl)cc3)c3ccccc3nc-2cc1Nc1ccc(Cl)cc1 [clofazimine] + CC(=O)NC[C@H]1CN(c2ccc(N3CCOCC3)c(F)c2)C(=O)O1 [linezolid] + CO[C@H]1/C=C/O[C@@]2(C)Oc3c(C)c(O)c4c(O)c(c(/C=N/N5CCN(C6CCCC6)CC5)c(O)c4c3C2=O)NC(=O)/C(C)=C\C=C\[C@H](C)[C@H](O)[C@@H](C)[C@@H](O)[C@@H](C)[C@H](OC(C)=O)[C@@H]1C [rifapentine]
0.114

----------
Tested on: Mycobacterium tuberculosis Erdman (autoluminescent)
Test: Einf, fitted maximum growth inhibition of three-drug combination (fraction); higher = stronger maximal inhibition
Settings: in vitro model: cholesterol 0.05 mM; time point: constant (~7 days, model-specific)
ASSAY ENDPOINT: Einf

1. COc1nc2ccc(Br)cc2cc1[C@@H](c1ccccc1)[C@@](O)(CCN(C)C)c1cccc2ccccc12 [bedaquiline] + NNC(=O)c1ccncc1 [isoniazid] + CO[C@H]1/C=C/O[C@@]2(C)Oc3c(C)c(O)c4c(O)c(c(/C=N/N5CCN(C)CC5)c(O)c4c3C2=O)NC(=O)/C(C)=C\C=C\[C@H](C)[C@H](O)[C@@H](C)[C@@H](O)[C@@H](C)[C@H](OC(C)=O)[C@@H]1C [rifampicin]
0.689
2. CC[C@@H](CO)NCCN[C@@H](CC)CO [ethambutol] + COc1c(N2C[C@@H]3CCCN[C@@H]3C2)c(F)cc2c(=O)c(C(=O)O)cn(C3CC3)c12 [moxifloxacin] + CO[C@H]1/C=C/O[C@@]2(C)Oc3c(C)c(O)c4c(O)c(c(/C=N/N5CCN(C6CCCC6)CC5)c(O)c4c3C2=O)NC(=O)/C(C)=C\C=C\[C@H](C)[C@H](O)[C@@H](C)[C@@H](O)[C@@H](C)[C@H](OC(C)=O)[C@@H]1C [rifapentine]
0.635

----------
Test system: Mycobacterium tuberculosis Erdman (autoluminescent)
Experiment: total FIC90 (Loewe) at 90% inhibition, three-drug combination (log2); higher = more antagonistic
Conditions: in vitro model: butyrate; time point: terminal (~4-5 doublings, model-specific)
ASSAY ENDPOINT: total FIC90

1) COc1nc2ccc(Br)cc2cc1[C@@H](c1ccccc1)[C@@](O)(CCN(C)C)c1cccc2ccccc12 [bedaquiline] + NNC(=O)c1ccncc1 [isoniazid] + CO[C@H]1/C=C/O[C@@]2(C)Oc3c(C)c(O)c4c(O)c(c(/C=N/N5CCN(C6CCCC6)CC5)c(O)c4c3C2=O)NC(=O)/C(C)=C\C=C\[C@H](C)[C@H](O)[C@@H](C)[C@@H](O)[C@@H](C)[C@H](OC(C)=O)[C@@H]1C [rifapentine]
0.51
2) CC(=O)NC[C@H]1CN(c2ccc(N3CCOCC3)c(F)c2)C(=O)O1 [linezolid] + COc1c(N2C[C@@H]3CCCN[C@@H]3C2)c(F)cc2c(=O)c(C(=O)O)cn(C3CC3)c12 [moxifloxacin] + CO[C@H]1/C=C/O[C@@]2(C)Oc3c(C)c(O)c4c(O)c(c(/C=N/N5CCN(C6CCCC6)CC5)c(O)c4c3C2=O)NC(=O)/C(C)=C\C=C\[C@H](C)[C@H](O)[C@@H](C)[C@@H](O)[C@@H](C)[C@H](OC(C)=O)[C@@H]1C [rifapentine]
0.196
3) CC(C)/N=c1\cc2n(-c3ccc(Cl)cc3)c3ccccc3nc-2cc1Nc1ccc(Cl)cc1 [clofazimine] + CC[C@@H](CO)NCCN[C@@H](CC)CO [ethambutol] + NC(=O)c1cnccn1 [pyrazinamide]
-0.127
4) CC[C@@H](CO)NCCN[C@@H](CC)CO [ethambutol] + CC(=O)NC[C@H]1CN(c2ccc(N3CCOCC3)c(F)c2)C(=O)O1 [linezolid] + CO[C@H]1/C=C/O[C@@]2(C)Oc3c(C)c(O)c4c(O)c(c(/C=N/N5CCN(C6CCCC6)CC5)c(O)c4c3C2=O)NC(=O)/C(C)=C\C=C\[C@H](C)[C@H](O)[C@@H](C)[C@@H](O)[C@@H](C)[C@H](OC(C)=O)[C@@H]1C [rifapentine]
-0.559
5) CC(=O)NC[C@H]1CN(c2ccc(N3CCOCC3)c(F)c2)C(=O)O1 [linezolid] + NC(=O)c1cnccn1 [pyrazinamide] + CO[C@H]1/C=C/O[C@@]2(C)Oc3c(C)c(O)c4c(O)c(c(/C=N/N5CCN(C6CCCC6)CC5)c(O)c4c3C2=O)NC(=O)/C(C)=C\C=C\[C@H](C)[C@H](O)[C@@H](C)[C@@H](O)[C@@H](C)[C@H](OC(C)=O)[C@@H]1C [rifapentine]
-0.132
6) CC(=O)NC[C@H]1CN(c2ccc(N3CCOCC3)c(F)c2)C(=O)O1 [linezolid] + COc1c(N2C[C@@H]3CCCN[C@@H]3C2)c(F)cc2c(=O)c(C(=O)O)cn(C3CC3)c12 [moxifloxacin] + CO[C@H]1/C=C/O[C@@]2(C)Oc3c(C)c(O)c4c(O)c(c(/C=N/N5CCN(C)CC5)c(O)c4c3C2=O)NC(=O)/C(C)=C\C=C\[C@H](C)[C@H](O)[C@@H](C)[C@@H](O)[C@@H](C)[C@H](OC(C)=O)[C@@H]1C [rifampicin]
0.0683
